system: Erythrocyte; assay: Binding affinity to 52 kDa erythrocyte membrane protein in neuraminidase treated human erythrocytes at 1 mg/mL after 1 hr relative to control; format: cell-based
recorded.metric: Activity (%)

Please review the entries below; each comes with its answer.
> print(dat)
                    substance  result
1   H-KDKEYHEQFKNYIYGVYSYA-OH      73
2  H-IKNKKLEKLKNIVSGDFVGNY-OH     105

I = H-KPEEEYKKFLEYSFNLLNTM-OH
II = H-KQNSHLSEKKIKPEEEYKKF-OH
// pick min by Activity: I , II Please identify the chosen entry by its label.
II
(II: 57%, I: 100%)

---

assay: Binding affinity to 52 kDa erythrocyte membrane protein in human erythrocytes; format: cell-based
pKd: −log10 of the molar value.
recorded.metric: pKd

> print(dat)
                    substance  result
1   H-KPEEEYKKFLEYSFNLLNTM-OH    6.35
2  H-IKNKKLEKLKNIVSGDFVGNY-OH    6.26
3  H-NLGLFGKNVLSKVKAQSETDY-OH    6.22

---

tested on: Plasmodium falciparum; assay: Inhibition of Plasmodium falciparum FCB2 merozoite invasion of human erythrocytes at 200 uM; format: functional
Measured inhibition at 200 µM by item
Note: unit % is implicit; provide only the numeric part.

> print(dat)
                    substance       recorded.metric  result
1   H-KPEEEYKKFLEYSFNLLNTM-OH  inhibition at 200 µM      49
2  H-NLGLFGKNVLSKVKAQSETDY-OH  inhibition at 200 µM      59
3  H-IKNKKLEKLKNIVSGDFVGNY-OH  inhibition at 200 µM      68
4  H-KNVHVLINGNSIIDEIEKNEY-OH  inhibition at 200 µM      29
5  H-MRILGEEKPNVDGVSTSNTPY-OH  inhibition at 200 µM      11

Determine from records and report inhibition at 200 µM for H-KDKEYHEQFKNYIYGVYSYA-OH
24

Determine from records and report inhibition at 200 µM for H-KQNSHLSEKKIKPEEEYKKF-OH
83

---

tested on: Erythrocyte; assay: Binding affinity to 52 kDa erythrocyte membrane protein in chymotrypsin treated human erythrocytes at 1 mg/mL after 1 hr relative to control; type: cell-based
recorded.metric: Activity (%)

Please review the entries below; each comes with its answer.
> print(dat)
                    substance  recorded.metric  result
1  H-NLGLFGKNVLSKVKAQSETDY-OH         Activity     160
2   H-KPEEEYKKFLEYSFNLLNTM-OH         Activity       0

1 = H-IKNKKLEKLKNIVSGDFVGNY-OH
2 = H-KDKEYHEQFKNYIYGVYSYA-OH
3 = H-KQNSHLSEKKIKPEEEYKKF-OH
Rank order required: Activity, descending. # list labels per requested ordering
1, 3, 2
(1: 223%, 3: 73%, 2: 34%)

---

system: Erythrocyte; assay: Binding affinity to 52 kDa erythrocyte membrane protein in trypsin treated human erythrocytes at 1 mg/mL after 1 hr relative to control; assay type: cell-based
recorded.metric: Activity (%)

P = H-NLGLFGKNVLSKVKAQSETDY-OH
Q = H-KQNSHLSEKKIKPEEEYKKF-OH
R = H-KPEEEYKKFLEYSFNLLNTM-OH
# descending Activity order for the listed substances # list labels per requested ordering
Q, R, P
(Q: 88%, R: 10%, P: 0%)

P = H-KDKEYHEQFKNYIYGVYSYA-OH
Q = H-IKNKKLEKLKNIVSGDFVGNY-OH
Select the item with the higher value of Activity from the options P and Q listed. Please identify the chosen entry by its label.
Q
(Q: 174%, P: 0%)
